assay: qHTS assay to identify small molecule agonists of the NFkB signaling pathway - cell viability counter screen (AID 1159515); settings: NFkB-bla ME-180 viability, CellTiter-Glo luminescence, 5 h; series mostly up to 61 µM; further: nearly all actives have a fitted effect of over 55% in size
Results filed as inconclusive are left out. Calls of active or inactive are those of the source. The call rests on the fitted dose curve.
Response enum: 1.0 = active, 0.0 = inactive

Solved entries (count: 3):
{"Molecule": "CC(=O)C(C)(C)C", "Class": 0.0}
{"Molecule": "CC(C)(C)c1cc([N+](=O)[O-])cc([N+](=O)[O-])c1O", "Class": 0.0}
{"Molecule": "ClCc1cccc(Cl)c1", "Class": 0.0}

Test call for this molecule, please: CCOC(=O)C(Cl)C(C)=O (configuration not stated) 0.0

And the next one, CC(C)N(C(=O)COc1nnc(C(F)(F)F)s1)c1ccc(F)cc1 ? 0.0

Same for Cn1sc(Cl)cc1=O 0.0

What do you get for ClP(Cl)(Cl)(Cl)Cl ? 0.0

Repeat for the following molecule: C/C(=C\c1ccccc1)[N+](=O)[O-] 1.0

# repeat for COCCOCCO 0.0

Repeat for the following molecule: CC(C)(Cl)[N+](=O)[O-] 0.0

CC(c1ccc(O)cc1)(c1ccc(O)cc1)c1ccc(O)cc1 , same question. 0.0

Similarly, O=C1NCN(c2ccccc2)C12CCN(CCCOc1ccc(F)cc1)CC2 ? 0.0

Would you mind doing C/C=C/C=O as well? 0.0

// next record O=C(O)C(F)(F)C(F)(F)C(F)(F)C(F)(F)C(F)(F)C(F)(F)C(F)(F)C(F)(F)C(F)(F)C(F)(F)F 0.0

Now consider COc1ccc(-c2ccccc2)cc1NNC(=O)OC(C)C and answer again. 0.0

Quick one: Cc1c(F)c(F)c(COC(=O)C2C(/C=C(\Cl)C(F)(F)F)C2(C)C)c(F)c1F (configuration not stated) 0.0

Same thing, different molecule: C=CCCl 0.0

Param item: C=CC(=O)OC 0.0

Further, for CCCC(=O)Cl ? 0.0

Quick one: CCOC(=O)COc1cc(-c2nn(C)c(OC(F)F)c2Cl)c(F)cc1Cl 0.0

Another molecule: COCC(C)N(C(=O)CCl)c1c(C)csc1C (configuration not stated) 0.0

Now the molecule O=C(NCc1cccnc1)Nc1ccc([N+](=O)[O-])cc1 0.0

Then O=[N+]([O-])c1ccc(F)c([N+](=O)[O-])c1 ? 0.0

O=C(O)C1(c2ccc3c(c2)OC[C@H](Cc2ccc(-c4ccccc4)cc2)[C@H]3O)CCCC1 , same question. 0.0

Further, for c1ccc(CN2CCNCC2)cc1 ? 0.0

And then CCCN(CC1CC1)c1c([N+](=O)[O-])cc(C(F)(F)F)cc1[N+](=O)[O-] , what is it? 0.0

Again, but for CC1(C)[C@H](C=C(Cl)Cl)[C@@H]1C(=O)O[C@@H](C#N)c1cccc(Oc2ccccc2)c1 0.0

----------
target: Estrogen receptor (Homo sapiens); assay: qHTS assay to identify small molecule agonists of the estrogen receptor alpha (ER-alpha) signaling pathway (AID 743075); settings: HEK293 ER-alpha-UAS-bla, beta-lactamase FRET ratio, 18 h; series mostly up to 70.1 µM;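 further: HEK293 GripTite cells with ER-alpha and UAS-driven beta-lactamase reporter; on the % scale 0 is the no-effect control and ±100 the full control effect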
Results filed as inconclusive are left out. The source made the active and inactive calls. The call rests on the fitted dose curve.
Write down one outcome, taken from Yes (active), No (inactive)

{"Compound": "ClCc1ccccc1", "Class": "No"}
{"Compound": "CCCCNP(N)(N)=S", "Class": "No"}
{"Compound": "CC(Cl)Cl", "Class": "No"}
{"Compound": "OCCCBr", "Class": "No"}
{"Compound": "NC(=O)C(Cl)(Cl)Cl", "Class": "No"}
{"Compound": "O=[N+]([O-])c1ccc(F)c([N+](=O)[O-])c1", "Class": "No"}
{"Compound": "CCOP(=S)(OCC)Oc1cc(Cl)c(Br)cc1Cl", "Class": "No"}
{"Compound": "ClCC(Br)CBr (stereo not given)", "Class": "No"}
{"Compound": "II", "Class": "No"}
{"Compound": "CNP(=O)(OC)Oc1ccc(C(C)(C)C)cc1Cl (stereo not given)", "Class": "No"}

Could you please tell me the result logged for CCOC(=O)C(Cl)C(C)=O (stereo not given) in this assay? No

----------
experiment: qHTS RealTime-Glo MT Cell Viability Assay in HEK293 cells - 0 hour (AID 1224880); details: RealTime-Glo luminescence; series mostly up to 76.8 µM; further: top concentration of the series differs between compounds; on the % scale 0 is the no-effect control and ±100 the full control effect; nearly all actives have a fitted effect of over 45% in size
Records with an inconclusive call do not appear. Active and inactive are the calls of the source. Calls come from the whole dose curve; as a rule, active = well fitted cell-killing curve with a large enough effect in the repeat runs; inconclusive = weak or mixed curves, or effect the other way; inactive = flat fitted curve, though single readings scatter.

{"Compound": "C=CC(=O)OCC(C)C", "activity change, negative = cytotoxicity": "inactive"}
{"Compound": "CCCN(CCC)c1c([N+](=O)[O-])cc(S(C)(=O)=O)cc1[N+](=O)[O-]", "activity change, negative = cytotoxicity": "inactive"}
{"Compound": "CC(=O)c1cc2c(cc1C)C(C)(C)C(C)CC2(C)C (stereo not drawn)", "activity change, negative = cytotoxicity": "inactive"}

----------
experiment: qHTS assay to identify small molecule agonists of the androgen receptor (AR) signaling pathway in the presence of an antagonist - cell viability counter screen (AID 1259379); conditions: MDA-kb2 viability, CellTiter-Fluor, 16 h; series mostly up to 92.4 µM; further: nearly all actives have a fitted effect of over 25% in size
Results filed as inconclusive are left out. Activity calls are given as the source filed them. Calls come from the whole dose curve; as a rule, active = well fitted cell-killing curve with a large enough effect in the repeat runs; inconclusive = weak or mixed curves, or effect the other way; inactive = flat fitted curve, though single readings scatter.
Could you please pick one outcome from this set? active, inactive

Look over these answered cases.
{"Compound": "CCOc1nc(F)cc2nc(S(=O)(=O)Nc3c(Cl)cccc3Cl)nn12", "Class": "inactive"}
{"Compound": "Sc1ccccc1Cl", "Class": "inactive"}
{"Compound": "O=C(NCc1cccnc1)Nc1ccc([N+](=O)[O-])cc1", "Class": "inactive"}
{"Compound": "Cc1ccccc1C(=O)Nc1cccc(OC(C)C)c1", "Class": "inactive"}
{"Compound": "CCC(C)(NC(=O)c1cc(Cl)c(C)c(Cl)c1)C(=O)CCl (configuration not stated)", "Class": "active"}

Per the assay record, what outcome was assigned to COc1cc(Cl)c(OC)cc1Cl ? inactive

Then what about the compound Cc1ccc2ccccc2c1 ? inactive

----------
molecular target: Bile acid receptor (Homo sapiens) (UniProt Q96RI1); test: qHTS assay to identify small molecule antagonists of the farnesoid-X-receptor (FXR) signaling pathway (AID 743217); details: HEK293T FXR-UAS-bla, beta-lactamase ratio, CDCA-stimulated, 16 h; series mostly up to 62.6 µM; further: on the % scale 0 is the no-effect control and ±100 the full control effect
Sequence (Q96RI1 whole entry, looked up): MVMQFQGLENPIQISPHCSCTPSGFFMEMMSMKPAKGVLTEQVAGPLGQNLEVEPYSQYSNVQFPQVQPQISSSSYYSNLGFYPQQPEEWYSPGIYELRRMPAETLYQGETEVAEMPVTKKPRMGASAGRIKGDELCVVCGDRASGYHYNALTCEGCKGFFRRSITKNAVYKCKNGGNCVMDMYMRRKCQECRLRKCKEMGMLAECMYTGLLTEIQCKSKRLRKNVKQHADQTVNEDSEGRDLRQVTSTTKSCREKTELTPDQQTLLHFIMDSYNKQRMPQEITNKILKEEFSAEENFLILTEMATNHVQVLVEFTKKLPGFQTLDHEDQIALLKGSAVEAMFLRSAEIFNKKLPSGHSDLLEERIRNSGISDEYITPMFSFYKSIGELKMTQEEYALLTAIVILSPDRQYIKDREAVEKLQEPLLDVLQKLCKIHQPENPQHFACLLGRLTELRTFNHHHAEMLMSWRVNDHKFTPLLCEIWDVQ
Inconclusive results are not listed. Activity calls are given as the source filed them. The call rests on the fitted dose curve; in most records, active means well fitted inhibition curve with a large enough effect in the signal ratio in the repeat runs (not every such curve was filed as active); inconclusive means weak or mixed curves, or effect the other way; inactive means no such curve, though single readings can be large or run the other way; the % refers to the signal ratio.
Reported metric: outcome

{"Compound": "CCOP(=S)(OCC)Oc1nc(Cl)c(Cl)cc1Cl", "Obs value": "inactive"}
{"Compound": "O=C(Nc1ccccc1)Nc1cnns1", "Obs value": "inactive"}
{"Compound": "CCOC(=O)CBr", "Obs value": "inactive"}
{"Compound": "O=C(C(Cl)(Cl)Cl)C(Cl)(Cl)Cl", "Obs value": "inactive"}
{"Compound": "O=C(O)c1ccccc1C(=O)Nc1cccc2ccccc12", "Obs value": "inactive"}
{"Compound": "C=CC(=O)OCC(C)O (stereo not given)", "Obs value": "inactive"}
{"Compound": "CCOS(C)(=O)=O", "Obs value": "inactive"}
{"Compound": "CC(Cl)C(C)Cl (stereo not given)", "Obs value": "inactive"}
{"Compound": "O=S1OC[C@@H]2[C@H](CO1)[C@]1(Cl)C(Cl)=C(Cl)[C@@]2(Cl)C1(Cl)Cl (stereo not given in full)", "Obs value": "inactive"}
{"Compound": "COc1nn(C(=O)NS(=O)(=O)c2ccccc2OC(F)(F)F)c(=O)n1C", "Obs value": "inactive"}

If you can, please state the reported outcome value of c1ccoc1 . inactive

Consider next the compound CCCCNP(N)(N)=S in the same way. inactive

Field entry: ClCCCCBr inactive

Also C=CCOC(C)=O ? inactive

Note, next up: Cc1ccc2ccccc2c1 inactive

----------
target: Nuclear receptor subfamily 1 group I member 2 (Homo sapiens); experiment: Human pregnane X receptor (PXR) small molecule agonists, qHTS assay (AID 1346982); settings: PXR-Luc HepG2, CYP3A4 luciferase reporter, 24 h; series mostly up to 92.4 µM; further: nearly all actives have a fitted effect of over 35% in size; on activation: on the % scale 0 is the no-effect control and ±100 the full control effect
Records with an inconclusive call do not appear. The source made the active and inactive calls. The call rests on the fitted dose curve; in most records, active means well fitted activation curve with a large enough effect in the repeat runs; inconclusive means weak or mixed curves; inactive means no such curve, though single readings can be large or run the other way.
The reply should name one outcome from active, inactive

Example entries begin here.
{"Molecule": "O=S1(=O)OC(c2cc(Br)c(O)c(Br)c2)(c2cc(Br)c(O)c(Br)c2)c2ccccc21", "System under test": "Nuclear receptor subfamily 1 group I member 2 (Homo sapiens)", "Class": "inactive"}
{"Molecule": "O=[N+]([O-])c1ccc(F)c([N+](=O)[O-])c1", "System under test": "Nuclear receptor subfamily 1 group I member 2 (Homo sapiens)", "Class": "inactive"}
{"Molecule": "CCO[C@H]1O[C@@H]2OC3(C)CC[C@H]4[C@H](C)CC[C@@H]([C@H]1C)[C@@]24OO3", "System under test": "Nuclear receptor subfamily 1 group I member 2 (Homo sapiens)", "Class": "inactive"}
{"Molecule": "CC(Cl)C(C)Cl (centres undefined)", "System under test": "Nuclear receptor subfamily 1 group I member 2 (Homo sapiens)", "Class": "inactive"}
{"Molecule": "Clc1ccc(C2(Cn3cncn3)CC(Br)CO2)c(Cl)c1 (centres undefined)", "System under test": "Nuclear receptor subfamily 1 group I member 2 (Homo sapiens)", "Class": "active"}
{"Molecule": "ClCc1ccccc1", "System under test": "Nuclear receptor subfamily 1 group I member 2 (Homo sapiens)", "Class": "active"}
{"Molecule": "Cc1ccccc1CCl", "System under test": "Nuclear receptor subfamily 1 group I member 2 (Homo sapiens)", "Class": "inactive"}
{"Molecule": "COC(N)=O", "System under test": "Nuclear receptor subfamily 1 group I member 2 (Homo sapiens)", "Class": "inactive"}
{"Molecule": "COC(=O)c1cncn1C(C)c1ccccc1 (centres undefined)", "System under test": "Nuclear receptor subfamily 1 group I member 2 (Homo sapiens)", "Class": "inactive"}
{"Molecule": "Nc1nc(=S)[nH][nH]1", "System under test": "Nuclear receptor subfamily 1 group I member 2 (Homo sapiens)", "Class": "inactive"}

Recorded test outcome, item CC1Sc2c(C(=O)O)c(=O)c3cc(F)c(N4CCNCC4)cc3n21 (centres undefined) inactive

Repeat with CN(N=O)c1ccc([N+](=O)[O-])cc1 inactive

// same read-out, input: OCCCBr inactive

Then this molecule: CN1C(=O)NC(=O)C(C)(C2=CCCCC2)C1=O (centres undefined) inactive

meta.source: PubChem BioAssay (Tox21)
